assay: Cytotoxicity against HEK293 cells assessed as inhibition of cell proliferation at 10^2 umol/L after 72 hrs by MTT assay relative to control; type: cell-based; settings: human
ASSAY_METRIC: inhibition at 72 h, 100 umol/L (%)
Quick reminder: number only, in %, skip the unit.

# input For the compound Cc1ncc([N+](=O)[O-])n1CC(O)CNC1CCN(c2c(F)cc3c(=O)c(C(=O)O)cn(C4CC4)c3c2Cl)C1 (stereo unspecified) , what inhibition at 72 h, 100 umol/L is on record?
# output 35.8

###

experiment: Cytotoxicity against mouse C2C12 cells assessed as inhibition of cell proliferation at 3 x 10^-2 umol/L after 72 hrs by MTT assay relative to control; format: cell-based
ASSAY_METRIC: inhibition at 72 h, 0.03 umol/L (%)
Quick reminder: number only, in %, skip the unit.

# input For the compound Cc1ncc([N+](=O)[O-])n1CC(O)CNC1CCN(c2c(F)cc3c(=O)c(C(=O)O)cn(C4CC4)c3c2Cl)C1 (stereo unspecified) , what inhibition at 72 h, 0.03 umol/L is on record?
# output 0

Reference for the values: ChEMBL document CHEMBL3603734
